Below, each entry is listed with its recorded Affinity ELISA CPE mutant ratio (1:3, pH 6.0/7.4).
Target: T1, Axl (Homo sapiens, UniProt P30530)
T1 sequence (P30530 26-451 limits assumed): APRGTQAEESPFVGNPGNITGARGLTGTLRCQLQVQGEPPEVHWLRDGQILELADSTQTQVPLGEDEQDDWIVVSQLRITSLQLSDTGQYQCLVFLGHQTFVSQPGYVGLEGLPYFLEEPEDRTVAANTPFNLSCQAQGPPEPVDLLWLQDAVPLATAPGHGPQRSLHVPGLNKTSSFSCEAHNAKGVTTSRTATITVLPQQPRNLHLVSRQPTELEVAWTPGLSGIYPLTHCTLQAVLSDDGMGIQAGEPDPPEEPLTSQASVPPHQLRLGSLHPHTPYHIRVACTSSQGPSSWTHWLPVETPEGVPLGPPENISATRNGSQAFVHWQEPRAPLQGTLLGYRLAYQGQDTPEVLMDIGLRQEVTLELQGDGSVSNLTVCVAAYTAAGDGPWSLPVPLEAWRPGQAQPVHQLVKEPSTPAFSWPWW
Assay: Affinity ELISA of CPE mutant antibodies for binding to Axl at pH 6.0 over pH 7.4
Conditions: light chain variable region mutants; 1:3 dilution
measured.parameter: Affinity ELISA CPE mutant ratio (1:3, pH 6.0/7.4)

molecule	observed.result
LC-A032L (antibody, V domains shown) VH: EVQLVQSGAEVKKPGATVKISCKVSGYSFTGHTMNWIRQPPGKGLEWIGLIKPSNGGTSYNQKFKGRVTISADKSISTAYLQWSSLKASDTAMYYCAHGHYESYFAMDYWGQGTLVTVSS VL: DIQMTQSPSSLSASVGDRVTITCKASQDVSSLVAWYQQKPGQAPRLLIYWASTRHTGVPSRFSGSGSGTEFTLTISSLQPDDFATYYCQEHFSTPLTFGQGTKVEIK	1.982
LC-H091C (antibody, V domains shown) VH: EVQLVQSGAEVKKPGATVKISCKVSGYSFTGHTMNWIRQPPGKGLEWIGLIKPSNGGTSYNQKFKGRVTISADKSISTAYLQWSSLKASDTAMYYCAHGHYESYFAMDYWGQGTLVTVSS VL: DIQMTQSPSSLSASVGDRVTITCKASQDVSSAVAWYQQKPGQAPRLLIYWASTRHTGVPSRFSGSGSGTEFTLTISSLQPDDFATYYCQECFSTPLTFGQGTKVEIK	4.003
LC-A032M (antibody, V domains shown) VH: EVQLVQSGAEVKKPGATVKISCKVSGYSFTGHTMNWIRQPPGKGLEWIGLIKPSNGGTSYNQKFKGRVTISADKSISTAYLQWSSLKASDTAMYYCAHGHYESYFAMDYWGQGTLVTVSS VL: DIQMTQSPSSLSASVGDRVTITCKASQDVSSMVAWYQQKPGQAPRLLIYWASTRHTGVPSRFSGSGSGTEFTLTISSLQPDDFATYYCQEHFSTPLTFGQGTKVEIK	4.757
LC-P095H (antibody, V domains shown) VH: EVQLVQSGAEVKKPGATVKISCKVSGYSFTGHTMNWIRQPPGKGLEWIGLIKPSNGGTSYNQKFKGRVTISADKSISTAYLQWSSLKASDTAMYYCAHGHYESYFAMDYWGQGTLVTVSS VL: DIQMTQSPSSLSASVGDRVTITCKASQDVSSAVAWYQQKPGQAPRLLIYWASTRHTGVPSRFSGSGSGTEFTLTISSLQPDDFATYYCQEHFSTHLTFGQGTKVEIK	2.504
LC-F092N (antibody, V domains shown) VH: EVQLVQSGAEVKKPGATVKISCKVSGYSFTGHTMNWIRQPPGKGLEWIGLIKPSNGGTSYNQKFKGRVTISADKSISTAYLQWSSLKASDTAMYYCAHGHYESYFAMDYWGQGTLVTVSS VL: DIQMTQSPSSLSASVGDRVTITCKASQDVSSAVAWYQQKPGQAPRLLIYWASTRHTGVPSRFSGSGSGTEFTLTISSLQPDDFATYYCQEHNSTPLTFGQGTKVEIK	1.933
LC-F092S (antibody, V domains shown) VH: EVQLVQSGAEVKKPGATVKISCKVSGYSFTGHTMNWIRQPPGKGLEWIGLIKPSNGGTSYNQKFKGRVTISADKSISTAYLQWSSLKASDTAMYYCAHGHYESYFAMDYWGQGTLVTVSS VL: DIQMTQSPSSLSASVGDRVTITCKASQDVSSAVAWYQQKPGQAPRLLIYWASTRHTGVPSRFSGSGSGTEFTLTISSLQPDDFATYYCQEHSSTPLTFGQGTKVEIK	3.179
LC-H091Y (antibody, V domains shown) VH: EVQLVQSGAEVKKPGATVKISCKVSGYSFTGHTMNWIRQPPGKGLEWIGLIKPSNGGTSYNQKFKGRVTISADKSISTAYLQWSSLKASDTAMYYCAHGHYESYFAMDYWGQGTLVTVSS VL: DIQMTQSPSSLSASVGDRVTITCKASQDVSSAVAWYQQKPGQAPRLLIYWASTRHTGVPSRFSGSGSGTEFTLTISSLQPDDFATYYCQEYFSTPLTFGQGTKVEIK	3.931
LC-A051I (antibody, V domains shown) VH: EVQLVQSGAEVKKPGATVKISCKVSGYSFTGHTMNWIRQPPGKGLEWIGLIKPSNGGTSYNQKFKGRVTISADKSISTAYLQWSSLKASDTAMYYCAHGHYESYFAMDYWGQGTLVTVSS VL: DIQMTQSPSSLSASVGDRVTITCKASQDVSSAVAWYQQKPGQAPRLLIYWISTRHTGVPSRFSGSGSGTEFTLTISSLQPDDFATYYCQEHFSTPLTFGQGTKVEIK	2.241
LC-P095W (antibody, V domains shown) VH: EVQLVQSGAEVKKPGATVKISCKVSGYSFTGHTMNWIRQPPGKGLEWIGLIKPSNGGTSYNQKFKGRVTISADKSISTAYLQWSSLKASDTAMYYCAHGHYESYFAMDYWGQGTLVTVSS VL: DIQMTQSPSSLSASVGDRVTITCKASQDVSSAVAWYQQKPGQAPRLLIYWASTRHTGVPSRFSGSGSGTEFTLTISSLQPDDFATYYCQEHFSTWLTFGQGTKVEIK	2.148
LC-H091T (antibody, V domains shown) VH: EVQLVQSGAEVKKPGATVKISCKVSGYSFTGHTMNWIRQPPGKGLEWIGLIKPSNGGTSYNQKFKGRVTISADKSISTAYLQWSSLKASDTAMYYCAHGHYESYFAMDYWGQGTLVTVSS VL: DIQMTQSPSSLSASVGDRVTITCKASQDVSSAVAWYQQKPGQAPRLLIYWASTRHTGVPSRFSGSGSGTEFTLTISSLQPDDFATYYCQETFSTPLTFGQGTKVEIK	3.779
